Target under test: BTK protein (Homo sapiens, UniProt Q06187)
Construct: endogenous in cells; host or cells: TMD-8 cells
Sequence (Q06187 whole entry): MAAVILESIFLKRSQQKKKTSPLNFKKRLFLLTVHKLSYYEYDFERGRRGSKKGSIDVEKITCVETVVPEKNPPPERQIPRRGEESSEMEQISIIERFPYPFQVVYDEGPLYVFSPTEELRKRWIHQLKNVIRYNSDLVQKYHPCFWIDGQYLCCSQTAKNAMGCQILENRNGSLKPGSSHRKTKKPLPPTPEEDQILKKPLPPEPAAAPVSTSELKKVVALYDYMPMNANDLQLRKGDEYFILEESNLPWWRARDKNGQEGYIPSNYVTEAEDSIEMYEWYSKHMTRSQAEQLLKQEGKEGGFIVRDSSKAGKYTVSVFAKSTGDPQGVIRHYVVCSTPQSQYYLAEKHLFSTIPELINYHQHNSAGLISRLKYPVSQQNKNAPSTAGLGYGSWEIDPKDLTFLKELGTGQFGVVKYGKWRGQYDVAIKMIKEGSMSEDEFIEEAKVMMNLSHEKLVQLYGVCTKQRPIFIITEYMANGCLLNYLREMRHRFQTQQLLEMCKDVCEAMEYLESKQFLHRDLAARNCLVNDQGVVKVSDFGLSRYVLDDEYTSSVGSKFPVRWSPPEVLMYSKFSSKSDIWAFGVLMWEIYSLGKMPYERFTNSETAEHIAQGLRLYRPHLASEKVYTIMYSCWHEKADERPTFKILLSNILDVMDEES
Measurement protocol: Measurement of BTK protein degradation ability in TMD-8 cells (Western blotting)
Type: cell-based
Details: compound 100 nM, harvested after 24 hours
Recorded endpoint: BTK degradation (%) 100 nM

Compound	BTK degradation (%) 100 nM
Cc1c(NC(=O)N2CC(OC(C)C)C2)cc(F)cc1-c1ccnc(Nc2ccc(N3CCN(CC4CCN(CC(=O)Nc5cccc(NC6CCC(=O)NC6=O)c5)CC4)CC3)cc2)n1 (centres unmarked) [Example 106]	76
COc1ccc(C(=O)N2CCC(CN3CCN(c4ccc(Nc5nccc(-c6ccc(CNC(=O)N7CC(OC(C)C)C7)c(C)c6)n5)cc4)CC3)CC2)cc1N1CCC(=O)NC1=O [Example 86]	97.5
Cc1cc(-c2ccnc(Nc3ccc(N4CCN(CC5CCN(c6ccc7c(c6)C(=O)N(C6CCC(=O)NC6=O)C7=O)CC5)CC4)cc3)n2)ccc1CNC(=O)N1CC(OC(C)C)C1 (centres unmarked) [Example 7]	98.5
Cc1cc(-c2ccnc(Nc3ccc(N4CCN(CC5CN(c6ccc7c(c6)C(=O)N(C6CCC(=O)NC6=O)C7=O)C5)CC4)cc3)n2)ccc1CNC(=O)c1cn(C(C)(C)C)nn1 (centres unmarked) [Example 32]	98.5
Cc1cc(-c2ccnc(Nc3ccc(C4CCN(CC5CCN(c6ccc7c(c6)C(=O)N(C6CCC(=O)NC6=O)C7=O)CC5)CC4)nc3)n2)ccc1CNC(=O)N1CC(OC(C)C)C1 (centres unmarked) [Example 19]	99
Cc1cc(-c2ccnc(Nc3ccc(N4CCC(CN5CCN(c6cccc(NC7CCC(=O)NC7=O)c6)CC5)CC4)cc3)n2)ccc1CNC(=O)N1CC(OC(C)C)C1 (centres unmarked) [Example 120]	99.5
Cc1cc(-c2ccnc(Nc3ccc(C4CN(CC5CCN(C(=O)c6cccc(NC7CCC(=O)NC7=O)c6)CC5)C4)cc3)n2)ccc1CNC(=O)N1CC(OC(C)C)C1 (centres unmarked) [Example 101]	100.0
Cc1cc(-c2ccnc(Nc3ccc(C4CCN(CC5CCN(c6cccc(N7CCC(=O)NC7=O)c6)CC5)CC4)cc3)n2)ccc1CNC(=O)c1cnn(C(C)C)c1 [Example 84]	99.0
Cc1cc(-c2ccnc(Nc3ccc(N4CCC(C(=O)N5CCC(c6ccc(NC7CCC(=O)NC7=O)cc6)CC5)CC4)cc3)n2)ccc1CNC(=O)N1CC(OC(C)C)C1 (centres unmarked) [Example 117]	99.0
Cc1cc(-c2ccnc(Nc3ccc(N4CCC(CN5CCC(c6ccc(OC7CCC(=O)NC7=O)cc6)CC5)CC4)nc3)n2)ccc1CNC(=O)N1CC(OC(C)C)C1 (centres unmarked) [Example 144]	98.5
Cc1cc(-c2ccnc(Nc3ccc(N4CCN(CC5CCN(c6ccc(N7CCC(=O)NC7=O)cc6)CC5)CC4)cc3)n2)ccc1CNC(=O)N1CC(OC(C)C)C1 [Example 66]	98.5

---

Target under test: BTK protein (Homo sapiens)
Construct: endogenous in cells; host or cells: TMD-8 cells
Measurement protocol: Measurement of BTK protein degradation ability in TMD-8 cells (Western blotting)
Assay type: cell-based
Details: compound 100 nM, harvested after 24 hours
Recorded endpoint: BTK degradation (%) 100 nM

Compound	Unit name	Obs value
Cc1cc(-c2ccnc(Nc3ccc(C4CCN(C5CCN(c6ccc7c(c6)C(=O)N(C6CCC(=O)NC6=O)C7=O)CC5)CC4)cc3)n2)ccc1CNC(=O)N1CC(OC(C)C)C1 (stereo not drawn)	%	99.5
CC(C)(C)n1cc(C(=O)NCc2ccc(-c3ccnc(Nc4ccc(N5CCC(CN6CCC(c7ccc(NC8CCC(=O)NC8=O)cc7)CC6)CC5)cc4)n3)cc2CO)nn1 (stereo not drawn)	%	100.0
Cc1cc(-c2ccnc(Nc3ccc(C4CCN(CC5CCN(c6ccc(NC7CCC(=O)NC7=O)cc6)CC5)CC4)cc3)n2)ccc1CNC(=O)N1CC(OC(C)C)C1 (stereo not drawn)	%	99.7

1 = Cc1cc(NC(=O)N2CC(OC(C)C)C2)cc(-c2ccnc(Nc3ccc(N4CCN(CC5CCN(c6ccc7c(c6)C(=O)N(C6CCC(=O)NC6=O)C7=O)CC5)CC4)cc3)n2)c1 (stereo not drawn)
2 = Cc1c(NC(=O)c2cn(C(C)(C)C)nn2)cc(F)cc1-c1ccnc(Nc2ccc3c(c2)CN(CC2CCN(c4ccc5c(c4)C(=O)N(C4CCC(=O)NC4=O)C5=O)CC2)CC3)n1 (stereo not drawn)
-- ask Would you let me know which has the greater BTK degradation (%) 100 nM value, 1 or 2 ? # answer = label of selected item
-- reply 1

---

Target under test: BTK protein (Homo sapiens, UniProt Q06187)
Construct: endogenous in cells; host or cells: TMD-8 cells
Measurement protocol: Measurement of BTK protein degradation ability in TMD-8 cells (Western blotting)
Assay type: cell-based
Details: compound 1 nM, harvested after 24 hours
Recorded endpoint: BTK degradation (%) 1 nM

I = Cc1cc(-c2ccnc(Nc3ccc(N4CCN(CC5CCN(c6ccc(N7CCC(=O)NC7=O)cc6)CC5)CC4)cc3)n2)ccc1CNC(=O)N1CC(OC(C)C)C1 [Example 66]
II = Cc1cc(NC(=O)N2CC(OC(C)C)C2)cc(-c2ccnc(Nc3ccc(N4CCN(CC5CCN(c6ccc7c(c6)C(=O)N(C6CCC(=O)NC6=O)C7=O)CC5)CC4)cc3)n2)c1 (stereo not drawn) [Example 29]
-- ask For I and II , which recorded BTK degradation (%) 1 nM is lower? Refer to your chosen item by its label in the answer.
-- reply II

P = Cc1cc(-c2ccnc(Nc3ccc(C4CCN(CC5CCN(c6cccc(N7CCC(=O)NC7=O)c6)CC5)CC4)cc3)n2)ccc1CNC(=O)c1cnn(C(C)(C)C)c1 [Example 85]
Q = Cc1cc(-c2ccnc(Nc3ccc(N4CCN(CC5CCN(c6ccc(OC7CCC(=O)NC7=O)cc6)CC5)CC4)cc3)n2)ccc1CNC(=O)N1CC(OC(C)C)C1 (stereo not drawn) [Example 43]
-- ask Please tell me which of the two, P or Q , has the higher reported BTK degradation (%) 1 nM value. Which one? Tell me its label.
-- reply Q
(Q: 83.0%, P: 45.5%)

---

Target under test: BTK protein (Homo sapiens)
Construct: endogenous in cells; host or cells: TMD-8 cells
Measurement protocol: Measurement of BTK protein degradation ability in TMD-8 cells (Western blotting)
Assay type: cell-based
Details: compound 1 nM, harvested after 24 hours
Recorded endpoint: BTK degradation (%) 1 nM

Illustrative cases are given below, each with its answer.
Compound	BTK degradation (%) 1 nM
Cc1cc(-c2ccnc(Nc3ccc(C4CN(CC5CCN(C(=O)c6cccc(NC7CCC(=O)NC7=O)c6)CC5)C4)cc3)n2)ccc1CNC(=O)N1CC(OC(C)C)C1 (centres unmarked)	50.5
Cc1cc(-c2ccnc(Nc3ccc(C4CCN(CC5CCN(c6ccc(NC7CCC(=O)NC7=O)cc6)CC5)CC4)cc3)n2)ccc1CNC(=O)N1CC(OC(C)C)C1 (centres unmarked)	13.7
Cc1cc(-c2ccnc(Nc3ccc(C4CCN(CC5CCN(c6ccc(OC7CCC(=O)NC7=O)cc6)CC5)CC4)cc3)n2)ccc1CNC(=O)N1CC(OC(C)C)C1 (centres unmarked)	22.5
Cc1cc(-c2ccnc(Nc3ccc(N4CCN(CC5CCN(c6ccc7c(c6)C(=O)N(C6CCC(=O)NC6=O)C7=O)CC5)CC4)cc3)n2)ccc1CNC(=O)c1cnn(C(C)C)c1 (centres unmarked)	49.5
Cc1cc(-c2ccnc(Nc3ccc(N4CCN(CC5CCN(CC(=O)Nc6cccc(NC7CCC(=O)NC7=O)c6)CC5)CC4)cc3)n2)ccc1CNC(=O)N1CC(OC(C)C)C1 (centres unmarked)	35
Cc1cc(-c2ccnc(Nc3cnn(C4CCN(CC5CCN(c6ccc7c(c6)C(=O)N(C6CCC(=O)NC6=O)C7=O)CC5)CC4)c3)n2)ccc1CNC(=O)c1cnn(C(C)C)c1 (centres unmarked)	50.5
Cc1cc(-c2ccnc(Nc3cnn(C4CCN(CC5CN(c6ccc7c(c6)C(=O)N(C6CCC(=O)NC6=O)C7=O)C5)CC4)c3)n2)ccc1CNC(=O)c1cnn(C(C)C)c1 (centres unmarked)	60
Cc1cc(-c2ccnc(Nc3ccc(N4CCC(CN5CCC(c6ccc(NC7CCC(=O)NC7=O)cn6)CC5)CC4)cc3)n2)ccc1CNC(=O)c1cnn(C(C)(C)C)c1 (centres unmarked)	56.5

a = Cc1cc(-c2ccnc(Nc3ccc(N4CCC(CN5CCN(c6ccc(NC7CCC(=O)NC7=O)cn6)CC5)CC4)cc3)n2)ccc1CNC(=O)c1cnn(C(C)C)c1 (centres unmarked)
b = Cc1cc(-c2ccnc(Nc3ccc(N4CCC(CN5CCC(c6ccc(NC7CCC(=O)NC7=O)cc6)CC5)CC4)cc3)n2)ccc1CNC(=O)N1CC(OC(C)C)C1 (centres unmarked)
c = Cc1cc(-c2ccnc(Nc3ccc(N4CCN(CC5CCN(c6cccc(N7CCC(=O)NC7=O)c6)CC5)CC4)cc3)n2)ccc1CNC(=O)c1cnn(C(C)C)c1
-- ask Arrange the 3 compounds by rising BTK degradation (%) 1 nM, starting with the smallest. Your task in answering is to list the labels in the requested order.
-- reply b, a, c
(b: 17.5%, a: 49.0%, c: 73.5%)
